Each recorded value in this set is attributed to ChEMBL document CHEMBL1255335.

tested on: Escherichia coli; experiment: Antibacterial activity against Escherichia coli DH5alpha expressing Klebsiella pneumoniae beta-lactamase SHV-1 by agar dilution method in presence of 2 ug/ml clavulanic acid; assay type: functional
Measurement Label: MIC

CO/N=C(\C(=O)N[C@@H]1C(=O)N2C(C(=O)O)=C(COC(C)=O)CS[C@H]12)c1csc(N)n1 = 0.06 µg/mL
CC1(C)S[C@@H]2[C@H](NC(=O)[C@H](N)c3ccc(O)cc3)C(=O)N2[C@H]1C(=O)O = 8 µM
CC(C)(O/N=C(\C(=O)N[C@@H]1C(=O)N2C(C(=O)[O-])=C(C[n+]3ccccc3)CS[C@H]12)c1csc(N)n1)C(=O)O = 0.25 µg/mL

# ---- query compound ----
Value sought: MIC, system Escherichia coli, item CO/N=C(\C(=O)N[C@@H]1C(=O)N2C(C(=O)O)=C(CSc3nc(=O)c(O)nn3C)CS[C@H]12)c1csc(N)n1 . Result: 0.03 µg/mL

---

MIC values, listed per item
tested on: Escherichia coli; test: Antibacterial activity against Escherichia coli DH5alpha with deltaampC by agar dilution method in presence of 2 ug/ml clavulanic acid; type: functional
Give the value, in units of µg/mL, as a plain number.

Recorded MIC, per entry:
CC(C)(O/N=C(\C(=O)N[C@@H]1C(=O)N2C(C(=O)[O-])=C(C[n+]3ccccc3)CS[C@H]12)c1csc(N)n1)C(=O)O [CEFTAZIDIME] = 0.125
CO/N=C(\C(=O)N[C@@H]1C(=O)N2C(C(=O)O)=C(CSc3nc(=O)c(O)nn3C)CS[C@H]12)c1csc(N)n1 [CEFTRIAXONE] = 0.06

# ---- query compound ----
Sample CO/N=C(\C(=O)N[C@@H]1C(=O)N2C(C(=O)O)=C(COC(C)=O)CS[C@H]12)c1csc(N)n1 [CEFOTAXIME] ; MIC observed: 0.06

---

MIC values, listed per item
test system: Escherichia coli; assay: Antibacterial activity against Escherichia coli DH5alpha with deltaampC by agar dilution method; format: functional
Give the value, in units of µg/mL, as a plain number.

Recorded MIC, per entry:
CC(=O)OCC1=C(C(=O)O)N2C(=O)[C@@H](NC(=O)Cc3cccs3)[C@H]2SC1 [CEPHALOTHIN] = 8
CC1(C)S[C@@H]2[C@H](NC(=O)[C@H](N)c3ccc(O)cc3)C(=O)N2[C@H]1C(=O)O [AMOXICILLIN] = 8
CC1(C)S[C@@H]2[C@H](/N=C/N3CCCCCC3)C(=O)N2[C@H]1C(=O)O [AMDINOCILLIN] = 0.125
CO/N=C(\C(=O)N[C@@H]1C(=O)N2C(C(=O)O)=C(COC(N)=O)CS[C@H]12)c1ccco1 [CEFUROXIME] = 4
CC1(C)S[C@@H]2[C@H](NC(=O)[C@H](C(=O)O)c3ccsc3)C(=O)N2[C@H]1C(=O)O [TICARCILLIN] = 4

Sample CC(C)(O/N=C(\C(=O)N[C@@H]1C(=O)N2C(C(=O)[O-])=C(C[n+]3ccccc3)CS[C@H]12)c1csc(N)n1)C(=O)O [CEFTAZIDIME] ; MIC observed: 0.25

Sample CO/N=C(\C(=O)N[C@@H]1C(=O)N2C(C(=O)O)=C(COC(C)=O)CS[C@H]12)c1csc(N)n1 [CEFOTAXIME] ; MIC observed: 0.06

Sample CO[C@@]1(NC(=O)Cc2cccs2)C(=O)N2C(C(=O)O)=C(COC(N)=O)CS[C@@H]21 [CEFOXITIN] ; MIC observed: 4

Sample CO/N=C(\C(=O)N[C@@H]1C(=O)N2C(C(=O)[O-])=C(C[N+]3(C)CCCC3)CS[C@H]12)c1csc(N)n1 ; MIC observed: 0.03

Sample CO/N=C(\C(=O)N[C@@H]1C(=O)N2C(C(=O)O)=C(CSc3nc(=O)c(O)nn3C)CS[C@H]12)c1csc(N)n1 [CEFTRIAXONE] ; MIC observed: 0.03

Sample CCN1CCN(C(=O)N[C@@H](C(=O)N[C@@H]2C(=O)N3[C@@H]2SC(C)(C)[C@@H]3C(=O)O)c2ccccc2)C(=O)C1=O [PIPERACILLIN] ; MIC observed: 2
